# Tested on: OVCAR-5
# PROCEDURE_SUMMARY: Growth inhibition of human OVCAR-5 cells measured after 48 hrs by sulforhodamine B assay
# Assay type: functional
TEST_READOUT: GI50 (nM)
Write the value in nM as a bare number.

Determine from records and report GI50 for CC(C)C[C@@H]1NC(=O)[C@H]2CSSCC/C=C/[C@H](CC(=O)N[C@H](C(C)C)C(=O)N2)OC(=O)CNC1=O
1200

Determine from records and report GI50 for CC(C)[C@H]1NC(=O)C[C@H]2/C=C/CCSSC[C@@H](NC1=O)C(=O)N[C@H](Cc1ccccc1)C(=O)NCC(=O)O2
6.8

Determine from records and report GI50 for CC(C)[C@H]1NC(=O)C[C@H]2/C=C/CCSSC[C@@H](NC1=O)C(=O)N[C@@H](Cc1ccccc1)C(=O)NCC(=O)O2
1400

Determine from records and report GI50 for CC(C)[C@H]1NC(=O)C[C@H]2/C=C/CCSSC[C@@H](NC1=O)C(=O)N[C@@H](C)C(=O)NCC(=O)O2
15000

Determine from records and report GI50 for CC(C)[C@H]1NC(=O)C[C@H]2/C=C/CCSSC[C@@H](NC1=O)C(=O)NCC(=O)NCC(=O)O2
3100

Determine from records and report GI50 for CC(C)[C@H]1NC(=O)C[C@H]2/C=C/CCSSC[C@@H](NC1=O)C(=O)N[C@H](C)C(=O)NCC(=O)O2
14

Determine from records and report GI50 for CC(C)C[C@H]1NC(=O)[C@H]2CSSCC/C=C/[C@H](CC(=O)N[C@H](C(C)C)C(=O)N2)OC(=O)CNC1=O
31

Determine from records and report GI50 for C/C=C1\NC(=O)[C@H]2CSSCC/C=C/[C@H](CC(=O)N[C@H](C(C)C)C(=O)N2)OC(=O)CNC1=O
49

---

# Tested on: NCI-H460
# PROCEDURE_SUMMARY: Growth inhibition of human NCI-H460 cells measured after 48 hrs by sulforhodamine B assay
# Type: functional
Labelling field: enter TRUE if recorded GI50 is less than 60 nM. Enter FALSE if it equals or exceeds that cut-off.

Decide: GI50 of CC(C)[C@H]1NC(=O)C[C@H]2/C=C/CCSSC[C@@H](NC1=O)C(=O)N[C@H](Cc1ccccc1)C(=O)NCC(=O)O2 strictly below 60 nM?
TRUE

Decide: GI50 of CC(C)[C@H]1NC(=O)C[C@H]2/C=C/CCSSC[C@@H](NC1=O)C(=O)N[C@@H](Cc1ccccc1)C(=O)NCC(=O)O2 strictly below 60 nM?
FALSE

Decide: GI50 of CC(C)C[C@@H]1NC(=O)[C@H]2CSSCC/C=C/[C@H](CC(=O)N[C@H](C(C)C)C(=O)N2)OC(=O)CNC1=O strictly below 60 nM?
FALSE

Decide: GI50 of CC(C)[C@H]1NC(=O)C[C@H]2/C=C/CCSSC[C@@H](NC1=O)C(=O)NCC(=O)NCC(=O)O2 strictly below 60 nM?
FALSE

Decide: GI50 of CC(C)C[C@H]1NC(=O)[C@H]2CSSCC/C=C/[C@H](CC(=O)N[C@H](C(C)C)C(=O)N2)OC(=O)CNC1=O strictly below 60 nM?
TRUE

Decide: GI50 of CC(C)[C@H]1NC(=O)C[C@H]2/C=C/CCSSC[C@@H](NC1=O)C(=O)N[C@H](C)C(=O)NCC(=O)O2 strictly below 60 nM?
TRUE

Decide: GI50 of CC(C)[C@H]1NC(=O)C[C@H]2/C=C/CCSSC[C@@H](NC1=O)C(=O)N[C@@H](C)C(=O)NCC(=O)O2 strictly below 60 nM?
FALSE

Decide: GI50 of C/C=C1\NC(=O)[C@H]2CSSCC/C=C/[C@H](CC(=O)N[C@H](C(C)C)C(=O)N2)OC(=O)CNC1=O strictly below 60 nM?
TRUE
